Molecular target: human recombinant GST cleaved CSNK1D (Homo sapiens)
Construct: GST (cleaved yes)
Sequence (P48730 whole entry): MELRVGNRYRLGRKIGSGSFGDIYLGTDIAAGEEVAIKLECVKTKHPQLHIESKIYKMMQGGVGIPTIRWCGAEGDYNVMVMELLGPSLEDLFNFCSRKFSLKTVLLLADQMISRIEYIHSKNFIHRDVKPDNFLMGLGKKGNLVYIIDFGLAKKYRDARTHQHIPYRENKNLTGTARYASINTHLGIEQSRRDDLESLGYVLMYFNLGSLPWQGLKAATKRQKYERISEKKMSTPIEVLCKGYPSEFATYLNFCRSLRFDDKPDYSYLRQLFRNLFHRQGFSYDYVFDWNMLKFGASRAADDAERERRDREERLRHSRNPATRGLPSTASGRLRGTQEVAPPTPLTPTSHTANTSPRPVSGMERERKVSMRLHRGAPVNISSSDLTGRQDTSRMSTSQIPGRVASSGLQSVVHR
Test: Purified Enzyme Assay (ADP-Glo CSNK1D Kinase Assay)
Settings: 2 nM CSNK1D; peptide substrate 150 μM; ATP 20 μM; 45 minutes at room temperature
RESULT TYPE: IC50 (nM)
Give the value in nM but do not write nM after it.

// solved cases for IC50 follow
COMPOUND	RESULT TYPE	QUANTITATIVE READOUT
CC1(CC2COC2)CCc2c(-c3ccnc4[nH]ncc34)c(-c3ccc(F)cn3)nn2C1 (single isomer, unassigned) [Example 320]	IC50	14
Fc1ccc(-c2nn3c(c2-c2ccnc4[nH]ncc24)CC(F)(F)C3)cc1 [Example 230]	IC50	5
Fc1ccc(-c2nn3c(c2-c2ccncc2)COCC3)nc1 [Example 74]	IC50	205
Cc1cc(-c2c(-c3ccc(F)cc3)nn3c2CC(F)(F)CC3)c2cn[nH]c2n1 [Example 47]	IC50	11
Fc1ccc(-c2nn3c(c2-c2ccnc4[nH]ncc24)CO[C@@H](C2CCC2)C3)nc1 (single isomer, unassigned) [Example 111]	IC50	36
CC(=O)Nc1cc(-c2c(-c3ccc(F)cn3)nn3c2OCCC3)ccn1 [Example 183]	IC50	7
CC1CCn2nc(-c3ccc(F)cn3)c(-c3ccnc4[nH]ncc34)c2O1 (single isomer, unassigned) [Example 198]	IC50	3

Prompt: # query: IC50 of entry Cc1cc(-c2c(-c3ccc(F)cn3)nn3c2OC(C)CC3)c2cn[nH]c2n1 (single isomer, unassigned) [Example 200]
Response: 4

----------
Target: human CSNK1D (Homo sapiens)
Sequence (P48730 whole entry): as above
Assay: Whole Cell nBRET CSNK1D Binding Assay
Conditions: living CHO cells stably expressing human CSNK1D tagged with nanoluciferase; NanoBret tracer 130 nM; 2 hours at 37 C
Simple rule here: IC50 less than 80 nM is Condition met, otherwise Condition not met.

As a guide, the following entries are already answered.
COMPOUND	ASSAYED TARGET	CLASSIFICATION
Fc1ccc(-c2nn3c(c2-c2c(F)cnc4[nH]ccc24)CCCC3)nc1	human CSNK1D (Homo sapiens)	Condition met
Cc1n[nH]c2ncc(F)c(-c3c(-c4ccc(F)cn4)nn4c3CC[C@H]3[C@@H]4C3(F)F)c12 (single isomer, unassigned)	human CSNK1D (Homo sapiens)	Condition not met
CC1(C)Cc2c(-c3cc(C(F)F)nc4[nH]ncc34)c(-c3ccc(F)cn3)nn2C1	human CSNK1D (Homo sapiens)	Condition not met
Fc1ccc(-c2nn3c(c2-c2ccnc4[nH]ncc24)CCC2(C3)CC2(F)F)nc1 (single isomer, unassigned) [Example 328]	human CSNK1D (Homo sapiens)	Condition met
Fc1ccc(-c2nn3c(c2-c2ccnc4[nH]ncc24)CC(F)(F)C3)cc1	human CSNK1D (Homo sapiens)	Condition met

Prompt: Answer whether the compound Fc1ccc(-c2nn3c(c2-c2ccnc4[nH]ncc24)CC2(C3)CC2(F)F)cc1 (single isomer, unassigned) [Example 250] has IC50 strictly less than 80 nM
Response: Condition met

----------
Molecular target: human recombinant GST cleaved CSNK1D (Homo sapiens)
Construct: GST (cleaved yes)
Assay: Purified Enzyme Assay (ADP-Glo CSNK1D Kinase Assay)
Conditions: 2 nM CSNK1D; peptide substrate 150 μM; ATP 20 μM; 45 minutes at room temperature
RESULT TYPE: IC50
Don't forget the unit after the number, please.

COMPOUND	RESULT
Fc1ccc(-c2nn3c(c2-c2ccnc4[nH]ncc24)C[C@H]2C[C@H]23)cc1 [Example 267]	6 nM
[2H]C([2H])([2H])[C@@]1(C#N)CCc2c(-c3ccnc4[nH]ncc34)c(-c3ccc(F)cn3)nn2C1 (single isomer, unassigned) [Example 324]	37 nM

Prompt: # query: IC50 of entry Cc1cc(-c2c(-c3ccc(F)cc3)nn3c2OCC2(CC2)C3)c2cn[nH]c2n1 [Example 461]
Response: 1 nM

Prompt: # query: IC50 of entry Cc1nc2[nH]ncc2c(-c2c(-c3ccc(F)cn3)nn3c2CC[C@@H]2C[C@@H]23)c1F (single isomer, unassigned) [Example 344]
Response: 4 nM

Prompt: # query: IC50 of entry [2H]C([2H])([2H])C1(C([2H])([2H])[2H])Cn2nc(-c3ccc(F)cn3)c(-c3c(F)cnc4[nH]nc(C)c34)c2CO1 [Example 404]
Response: 9 nM

Prompt: # query: IC50 of entry [2H]C([2H])([2H])[C@@]1(C([2H])([2H])F)CCc2c(-c3c(F)cnc4[nH]ncc34)c(-c3ccc(F)cn3)nn2C1 (single isomer, unassigned) [Example 294]
Response: 2 nM
